Consider the following molecules and their measured pest or weed control at 250 g/ha readings.
Tested on: Setaria faberi (SETFA)
Assay: Herbicidal efficacy, post-emergence application (glasshouse)
Type: in vivo
Settings: Setaria faberi, 312 h, evaluated visually after 13 days, 100=total damage, 0=no damage, read-out: percentage phytotoxicity to the plant, SETFA
// return numeric value only (unit: %, not printed)

CN1C[C@H](c2cc(C(F)(F)F)n(C)n2)[C@@H](C(=O)Nc2ccc(F)cc2F)C1=O	70
CN1C[C@H](c2cc(C(F)(F)F)n(C)n2)[C@@H](C(=O)Nc2cccc(F)c2OC(F)(F)F)C1=O	70
CN1C[C@H](c2cc(C(F)(F)F)n(C)n2)[C@@H](C(=O)Nc2ccc(F)nc2F)C1=O	80

Now consider the entry below.
// lookup pest or weed control at 250 g/ha for `CN1C[C@H](c2cc(C(F)(F)F)n(C)n2)[C@@H](C(=O)Nc2cccc(F)c2F)C1=O` 90

----------
Measured pest or weed control at 250 g/ha values are reported for all entries that follow.
Tested on: Abutilon theophrasti (ABUTH)
Assay: Herbicidal efficacy, post-emergence application (glasshouse)
Format: in vivo
Conditions: Abutilon theophrasti, 312 h, evaluated visually after 13 days, 100=total damage, 0=no damage, read-out: percentage phytotoxicity to the plant, ABUTH
Record the value in %, omitting the unit from your answer.

Solved cases below.
CCc1ccccc1NC(=O)[C@H]1C(=O)N(C)C[C@@H]1c1cc(C(F)(F)F)n(C)n1	0
CN1C[C@H](c2cc(C(F)(F)F)n(C)n2)[C@@H](C(=O)Nc2cccc(F)c2OC(F)F)C1=O	0
CN1C[C@H](c2cc(C(F)(F)F)n(C)n2)[C@@H](C(=O)Nc2cccc(F)c2C(F)(F)F)C1=O	0
CN1C[C@H](c2cc(C(F)(F)F)n(C)n2)[C@@H](C(=O)Nc2ccc(F)c(F)c2F)C1=O	0
CN1C[C@H](c2cc(C(F)(F)F)n(C)n2)[C@@H](C(=O)Nc2ccccc2F)C1=O	0

Find the recorded pest or weed control at 250 g/ha belonging to `COc1c(F)cccc1NC(=O)[C@H]1C(=O)N(C)C[C@@H]1c1cc(C(F)(F)F)n(C)n1` and report it. 0

What value of pest or weed control at 250 g/ha has been recorded for this entry: `CN1C[C@H](c2cc(C(F)(F)F)n(C)n2)[C@@H](C(=O)Nc2cccc(F)c2F)C1=O` 0

----------
Tested on: Echinochloa crus-galli (ECHCG)
Experiment: Herbicidal efficacy, post-emergence application (glasshouse)
Type: in vivo
Conditions: Echinochloa crus-galli, 312 h, evaluated visually after 13 days, 100=total damage, 0=no damage, read-out: percentage phytotoxicity to the plant, ECHCG
The entries below come with measured pest or weed control at 250 g/ha values attached.
A number alone suffices; assume %.

Consider the following illustrative entries.
CN1C[C@H](c2cnn(C)c2C(F)(F)F)[C@@H](C(=O)Nc2cccc(F)c2F)C1=O [Compound 2.15]	80
CN1C[C@H](c2cc(C(F)(F)F)n(C)n2)[C@@H](C(=O)Nc2ccccc2F)C1=O [Compound 2.2]	90
CN1C[C@H](c2cc(C(F)(F)F)n(C)n2)[C@@H](C(=O)Nc2cccc(F)c2C(F)(F)F)C1=O [Compound 2.5]	80
CN1C[C@H](c2cc(C(F)(F)F)n(C)n2)[C@@H](C(=O)Nc2cccc(F)c2OC(F)F)C1=O [Compound 2.10]	80
CN1C[C@H](c2cc(C(F)(F)F)n(C)n2)[C@@H](C(=O)Nc2ccc(F)nc2F)C1=O [Compound 2.8]	80
CN1C[C@H](c2cc(C(F)(F)F)n(C)n2)[C@@H](C(=O)Nc2cccc(F)c2F)C1=O [Compound 2.1]	90

Query: pest or weed control at 250 g/ha; subject: CCc1ccccc1NC(=O)[C@H]1C(=O)N(C)C[C@@H]1c1cc(C(F)(F)F)n(C)n1 [Compound 2.11] 80

Could you share which pest or weed control at 250 g/ha value was measured for CN1C[C@H](c2cc(C(F)(F)F)n(C)n2)[C@@H](C(=O)Nc2cccc(F)c2OC(F)(F)F)C1=O [Compound 2.4] ? 70

----------
Listed below: plant injury at 250 g/ha values for each entry.
Tested on: Zea mays (ZEAMX)
Test: Herbicidal efficacy, post-emergence application (glasshouse)
Format: in vivo
Settings: Zea mays, 312 h, evaluated visually after 13 days, 100=total damage, 0=no damage, read-out: percentage phytotoxicity to the plant, ZEAMX
Lab book: enter the figure in %, no units written.

In the examples that follow, each entry is paired with its recorded plant injury at 250 g/ha.
CCc1ccccc1NC(=O)[C@H]1C(=O)N(C)C[C@@H]1c1cc(C(F)(F)F)n(C)n1	0
CN1C[C@H](c2cc(C(F)(F)F)n(C)n2)[C@@H](C(=O)Nc2cccc(F)c2C(F)(F)F)C1=O	10
CN1C[C@H](c2cc(C(F)(F)F)n(C)n2)[C@@H](C(=O)Nc2ccc(F)c(F)c2F)C1=O	80
CN1C[C@H](c2cc(C(F)(F)F)n(C)n2)[C@@H](C(=O)Nc2cccc(F)c2OC(F)(F)F)C1=O	0
COc1c(F)cccc1NC(=O)[C@H]1C(=O)N(C)C[C@@H]1c1cc(C(F)(F)F)n(C)n1	80

# query: plant injury at 250 g/ha | item `CN1C[C@H](c2cc(C(F)(F)F)n(C)n2)[C@@H](C(=O)Nc2cccc(F)c2OC(F)F)C1=O` | system: Zea mays (ZEAMX) 80

plant injury at 250 g/ha of `CN1C[C@H](c2cc(C(F)(F)F)n(C)n2)[C@@H](C(=O)Nc2ccccc2F)C1=O` on Zea mays (ZEAMX)? 50

GET /values?readout=plant injury at 250 g/ha&system=Zea mays (ZEAMX)&item= `CN1C[C@H](c2cc(C(F)(F)F)n(C)n2)[C@@H](C(=O)Nc2ccc(F)nc2F)C1=O` 80

Can you look up plant injury at 250 g/ha on Zea mays (ZEAMX) for `CN1C[C@H](c2cc(C(F)(F)F)n(C)n2)[C@@H](C(=O)Nc2ccc(F)cc2F)C1=O` ? 60

Provide value of plant injury at 250 g/ha for this record tested with Zea mays (ZEAMX): `CN1C[C@H](c2cc(C(F)(F)F)n(C)n2)[C@@H](C(=O)Nc2cccc(F)c2F)C1=O` 80

Could you share what plant injury at 250 g/ha was measured for `CN1C[C@H](c2cc(C(F)(F)F)n(C)n2)[C@@H](C(=O)Nc2cccc(F)n2)C1=O` , tested on Zea mays (ZEAMX)? 40

Param readout = plant injury at 250 g/ha; param system = Zea mays (ZEAMX); param query = `CN1C[C@H](c2cnn(C)c2C(F)(F)F)[C@@H](C(=O)Nc2cccc(F)c2F)C1=O` ; response: value 30

----------
Test system: Echinochloa crus-galli (ECHCG)
Assay: Herbicidal efficacy, post-emergence application (glasshouse)
Format: in vivo
Conditions: Echinochloa crus-galli, 312 h, evaluated visually after 13 days, 100=total damage, 0=no damage, read-out: percentage phytotoxicity to the plant, ECHCG
reported.metric: pest or weed control at 250 g/ha (%)
Please reply with the bare figure in % and do not write the unit itself.

// known answers, use as guide
CN1C[C@H](c2cc(C(F)(F)F)n(C)n2)[C@@H](C(=O)Nc2cccc(F)n2)C1=O [Compound 2.9]	80
COc1c(F)cccc1NC(=O)[C@H]1C(=O)N(C)C[C@@H]1c1cc(C(F)(F)F)n(C)n1 [Compound 2.6]	70
CN1C[C@H](c2cc(C(F)(F)F)n(C)n2)[C@@H](C(=O)Nc2ccc(F)cc2F)C1=O [Compound 2.3]	70

pest or weed control at 250 g/ha for CN1C[C@H](c2cc(C(F)(F)F)n(C)n2)[C@@H](C(=O)Nc2ccc(F)c(F)c2F)C1=O [Compound 2.7] ? 80

----------
Recorded pest or weed control at 250 g/ha by entry
Test system: Setaria faberi (SETFA)
Assay: Herbicidal efficacy, post-emergence application (glasshouse)
Assay type: in vivo
Conditions: Setaria faberi, 312 h, evaluated visually after 13 days, 100=total damage, 0=no damage, read-out: percentage phytotoxicity to the plant, SETFA
Quick note: give the figure in %, leave out the unit.

Worked set:
CN1C[C@H](c2cc(C(F)(F)F)n(C)n2)[C@@H](C(=O)Nc2ccc(F)c(F)c2F)C1=O [Compound 2.7]	80
CN1C[C@H](c2cc(C(F)(F)F)n(C)n2)[C@@H](C(=O)Nc2cccc(F)c2C(F)(F)F)C1=O [Compound 2.5]	80
CN1C[C@H](c2cc(C(F)(F)F)n(C)n2)[C@@H](C(=O)Nc2ccccc2F)C1=O [Compound 2.2]	90
CCc1ccccc1NC(=O)[C@H]1C(=O)N(C)C[C@@H]1c1cc(C(F)(F)F)n(C)n1 [Compound 2.11]	80
CN1C[C@H](c2cnn(C)c2C(F)(F)F)[C@@H](C(=O)Nc2cccc(F)c2F)C1=O [Compound 2.15]	80
CN1C[C@H](c2cc(C(F)(F)F)n(C)n2)[C@@H](C(=O)Nc2cccc(F)c2OC(F)F)C1=O [Compound 2.10]	80
COc1c(F)cccc1NC(=O)[C@H]1C(=O)N(C)C[C@@H]1c1cc(C(F)(F)F)n(C)n1 [Compound 2.6]	70

// next entry
Any idea what its pest or weed control at 250 g/ha is? The compound is CN1C[C@H](c2cc(C(F)(F)F)n(C)n2)[C@@H](C(=O)Nc2cccc(F)n2)C1=O [Compound 2.9] 80
